// provenance: the M2OR odorant receptor database

target: OR2L13 (Homo sapiens); settings: stereoisomer not certain
Outcomes: 1 (active), 0 (inactive)

INSERT INTO assay_data (compound, tested_target, discrete_label) VALUES
  ('CCCC(S)CCOC(C)=O (stereo unspecified)', 'OR2L13 (Homo sapiens)', 0),
  ('CC(O)C(=O)[O-].[H+] (stereo unspecified)', 'OR2L13 (Homo sapiens)', 0),
  ('COc1ccc2[nH]cc(CCNC(C)=O)c2c1', 'OR2L13 (Homo sapiens)', 0),
  ('CCCCCCCCCCCC(=O)OCC', 'OR2L13 (Homo sapiens)', 0),
  ('CCCCCCCCCCCCCCCCCC(=O)OC', 'OR2L13 (Homo sapiens)', 0),
  ('O=c1ccc2ccccc2o1', 'OR2L13 (Homo sapiens)', 0),
  ('C=C(C)C1CC=C(C)CC1 (stereo unspecified)', 'OR2L13 (Homo sapiens)', 0),
  ('CCCCOCC(C)O (stereo unspecified)', 'OR2L13 (Homo sapiens)', 0),
  ('CCCCCCCCCCCCCCCC(=O)OCC', 'OR2L13 (Homo sapiens)', 0),
  ('CCCCCCCCCCCCO', 'OR2L13 (Homo sapiens)', 1),
  ('CCCCCC(S)C(C)CO (stereo unspecified)', 'OR2L13 (Homo sapiens)', 0),
  ('CCCCCCCCCCCCCCCC(=O)OC', 'OR2L13 (Homo sapiens)', 0),
  ('CCCCCCCCCCCCCC(=O)OCC', 'OR2L13 (Homo sapiens)', 0),
  ('CCCCC(S)C(C)CO (stereo unspecified)', 'OR2L13 (Homo sapiens)', 0),
  ('CCCCCCCCCCCCCCCC(=O)[O-].[H+]', 'OR2L13 (Homo sapiens)', 0),
  ('CCCCCCCCCCCCCCC(=O)O', 'OR2L13 (Homo sapiens)', 0),
  ('Cc1cnc(C)cn1', 'OR2L13 (Homo sapiens)', 0),
  ('CCC(C)CO (stereo unspecified)', 'OR2L13 (Homo sapiens)', 0),
  ('CCCCCCCCCC(=O)OCC', 'OR2L13 (Homo sapiens)', 0),
  ('CC1=CCC2CC1C2(C)C (stereo unspecified)', 'OR2L13 (Homo sapiens)', 0),
  ('CCCCCC(=O)C(C)C(C)=O (stereo unspecified)', 'OR2L13 (Homo sapiens)', 0),
  ('CC(C)=CCCC(C)=CCO', 'OR2L13 (Homo sapiens)', 0),
  ('CCCCCCC=CCCC=O', 'OR2L13 (Homo sapiens)', 0),
  ('Cc1ccc(C(C)C)cc1', 'OR2L13 (Homo sapiens)', 0),
  ('CCCCCCCC(=O)OCC', 'OR2L13 (Homo sapiens)', 0),
  ('CCCCCCCCCCCCCC(=O)OC', 'OR2L13 (Homo sapiens)', 0);

---

biological target: UniProt Q8VGJ5; details: stereoisomer not certain
Sequence (Q8VGJ5 as listed by the source): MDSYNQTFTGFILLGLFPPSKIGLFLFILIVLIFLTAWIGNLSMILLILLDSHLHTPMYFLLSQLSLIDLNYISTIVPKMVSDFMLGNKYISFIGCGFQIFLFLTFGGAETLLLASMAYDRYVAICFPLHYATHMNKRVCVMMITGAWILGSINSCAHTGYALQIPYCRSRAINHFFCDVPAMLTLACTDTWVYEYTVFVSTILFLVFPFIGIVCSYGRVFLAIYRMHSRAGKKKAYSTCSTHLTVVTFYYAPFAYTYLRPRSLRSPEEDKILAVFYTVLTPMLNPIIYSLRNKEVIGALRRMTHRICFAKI
Outcomes: active, inactive

INSERT INTO assay_data (molecule, tested_target, discrete_label) VALUES
  ('CCCCCC(=O)CC', 'UniProt Q8VGJ5', 'active'),
  ('O=C(c1ccccc1)c1ccccc1', 'UniProt Q8VGJ5', 'inactive'),
  ('CCCCCCC(C)=O', 'UniProt Q8VGJ5', 'active'),
  ('CCCCOC=O', 'UniProt Q8VGJ5', 'inactive'),
  ('CCCCC(=O)CC', 'UniProt Q8VGJ5', 'active'),
  ('CCCCOC(=O)C(C)OC(=O)CCC (centres undefined)', 'UniProt Q8VGJ5', 'inactive'),
  ('CCCCCCOC(C)=O', 'UniProt Q8VGJ5', 'inactive'),
  ('CC(=O)Oc1ccccc1', 'UniProt Q8VGJ5', 'inactive'),
  ('CCCCCC1=C(C)CCC1=O', 'UniProt Q8VGJ5', 'active');
